# system: Cytochrome P450 2D6 (Homo sapiens) (UniProt P10635)
# Sequence (P10635 whole entry, looked up): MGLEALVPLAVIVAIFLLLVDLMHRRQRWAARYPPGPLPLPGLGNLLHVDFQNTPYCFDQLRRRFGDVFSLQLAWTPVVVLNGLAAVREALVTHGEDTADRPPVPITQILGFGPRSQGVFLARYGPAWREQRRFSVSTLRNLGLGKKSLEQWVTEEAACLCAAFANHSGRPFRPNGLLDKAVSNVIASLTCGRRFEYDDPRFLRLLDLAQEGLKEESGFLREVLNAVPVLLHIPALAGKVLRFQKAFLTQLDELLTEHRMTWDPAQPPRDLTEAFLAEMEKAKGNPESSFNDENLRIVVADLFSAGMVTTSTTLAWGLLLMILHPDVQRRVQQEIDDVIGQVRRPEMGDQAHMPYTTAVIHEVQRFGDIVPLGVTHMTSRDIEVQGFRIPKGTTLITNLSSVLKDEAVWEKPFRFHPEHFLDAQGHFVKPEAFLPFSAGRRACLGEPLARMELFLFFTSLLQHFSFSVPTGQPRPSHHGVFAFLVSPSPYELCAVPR
# protocol: Cytochrome P450 Family 2 Subfamily D Member 6 (CYP2D6) small molecule antagonists: luciferase reporter qHTS assay (AID 1671196); note: nearly all actives have a fitted effect of over 50% in size; note: potency is the fitted concentration of half-maximal effect
# reported conditions: P450-Glo CYP2D6 enzyme assay, luciferin luminescence, 1 h; series mostly up to 115 µM
Inconclusive results are not listed. Activity calls are given as the source filed them. Calls come from the whole dose curve; as a rule, active = well fitted inhibition curve with a large enough effect in the repeat runs; inconclusive = weak or mixed curves; inactive = no such curve, though single readings can be large or run the other way.
reported endpoint: Potency

> print(dat)
                                   molecule                                    system  reported.endpoint       measurement
1             CCCCC/C=C\C/C=C\CCCCCCCC(=O)O  Cytochrome P450 2D6 (Homo sapiens) (UniProt P10635)            Potency  31.2 µM (active)
2  COCCOc1cc2cc(C(=O)NC3CCN(C(C)C)CC3)n(CC(=O)Nc3ccc(Cl)cn3)c2cn1  Cytochrome P450 2D6 (Homo sapiens) (UniProt P10635)            Potency          inactive
3                Cc1ccc(C(C)C)cc2c(C)ccc1-2  Cytochrome P450 2D6 (Homo sapiens) (UniProt P10635)            Potency          inactive
4          CC(C)=CCC1=C(O)c2ccccc2C(=O)C1=O  Cytochrome P450 2D6 (Homo sapiens) (UniProt P10635)            Potency  44.6 µM (active)
5                      FC(F)(F)c1cccc(Cl)c1  Cytochrome P450 2D6 (Homo sapiens) (UniProt P10635)            Potency          inactive
6  C#CC1(O)CC[C@H]2[C@@H]3CCC4=CCCC[C@@H]4[C@H]3CC[C@@]21C (some centres undefined)  Cytochrome P450 2D6 (Homo sapiens) (UniProt P10635)            Potency          inactive

Task item: Respond only with Potency recorded for CC(=O)c1ccc(C(C)=O)cc1
Reply: inactive

Task item: Respond only with Potency recorded for OC/C=C/CO
Reply: 17.8 µM (active)

Task item: Respond only with Potency recorded for Cc1ccc(O)c(O)c1
Reply: inactive
